Hey, just so you know, these numbers are from patent US6608083B1.

measurement_kind: melting point

compound	melting point
CCC(NC(=O)c1c(OC)c(-c2ccccc2)nc2ccccc12)c1ccccc1 (centres unmarked) [Example 47]	132 to 134 °C
CCc1c(-c2ccccc2)nc2ccccc2c1C(=O)NC(CC)c1ccccc1 (centres unmarked) [Example 38]	158 to 159 °C
COC(=O)C(NC(=O)c1cc(C2CCCCC2)nc2ccccc12)c1ccccc1 (centres unmarked)	151 to 153 °C

What does the record list as melting point for COC(=O)C(NC(=O)c1cc(-c2ccccc2)nc2cc(Cl)ccc12)c1ccccc1 (centres unmarked) ?
180 to 183 °C

What does the record list as melting point for CCC(NC(=O)c1c(OC)c(-c2ccccc2)nc2ccccc12)c1ccccc1 (centres unmarked) [Example 18] ?
163 to 165 °C

What does the record list as melting point for CC(C)(NC(=O)c1cc(-c2ccccc2)nc2ccccc12)c1ccccc1 ?
173 to 174 °C

What does the record list as melting point for COC(=O)C(NC(=O)c1cc(-c2ccccc2)nc2ccc(F)cc12)c1ccccc1 (centres unmarked) ?
174 to 176 °C

What does the record list as melting point for COC(=O)C(NC(=O)c1cc(-c2ccc(Cl)c(Cl)c2)nc2ccccc12)c1ccccc1 (centres unmarked) ?
164 to 165 °C

----------
measurement_kind: melting point

compound	recorded_result
COC(=O)C(NC(=O)c1c2c(nc3ccccc13)-c1ccccc1CC2)c1ccccc1 (stereo not shown)	217 to 219 °C
COC(=O)C(NC(=O)c1cc(-c2ccccc2OC)nc2ccccc12)c1ccccc1 (stereo not shown)	124 to 125 °C
CCC(NC(=O)c1c(N2C(=O)c3ccccc3C2=O)c(-c2ccccc2)nc2ccccc12)c1ccccc1 (stereo not shown)	201 to 202 °C
CCc1c(-c2ccccc2)nc2ccccc2c1C(=O)NC(C(=O)OC)c1ccccc1 (stereo not shown)	156 to 157 °C

What does the record list as melting point for CCC(NC(=O)c1cc(-c2ccccc2)nc2ccccc12)c1ccc(C)cc1 (stereo not shown) ?
160 to 162 °C

What does the record list as melting point for CCC(NC(=O)c1cc(-c2ccccc2)nc2ccccc12)c1ccc(Cl)cc1 (stereo not shown) ?
177 to 178 °C

What does the record list as melting point for CN(C)C(=O)C(NC(=O)c1cc(-c2ccccc2)nc2ccccc12)c1ccccc1 (stereo not shown) ?
219 to 221 °C

What does the record list as melting point for CCC(NC(=O)c1c(-c2ccccc2)c(-c2ccccc2)nc2ccccc12)c1ccccc1 (stereo not shown) ?
198 to 200 °C

What does the record list as melting point for NCC(NC(=O)c1cc(-c2ccccc2)nc2ccccc12)c1ccccc1 (stereo not shown) ?
139 to 141 °C

----------
measurement_kind: melting point

compound	measurement_kind	recorded_result
COC(=O)C(NC(=O)c1cc(-c2ccccc2)nc2ccccc12)C1=CCC=CC1 (centres unmarked)	melting point	120 to 122 °C

What does the record list as melting point for COC(=O)C(NC(=O)c1c2c(nc3ccccc13)-c1ccccc1CCC2)c1ccccc1 (centres unmarked) ?
186 to 188 °C

What does the record list as melting point for COC(=O)C(NC(=O)c1cc(-c2ccccc2Cl)nc2ccccc12)c1ccccc1 (centres unmarked) ?
175 to 178 °C

What does the record list as melting point for CCCC(NC(=O)c1cc(-c2ccccc2)nc2ccccc12)c1ccccc1 (centres unmarked) ?
149 to 150 °C

What does the record list as melting point for CCC(NC(=O)c1c(C)c(-c2ccc(Br)cc2)nc2ccc(Br)cc12)c1ccccc1 (centres unmarked) ?
230 to 231 °C

----------
Quick list: melting point per entry.

The following compounds have reported results that may help.
compound	melting point
COC(=O)C(NC(=O)c1cc(-c2cc[nH]c2)nc2ccccc12)c1ccccc1 (centres unmarked)	202 to 204 °C
NC(=O)C(NC(=O)c1cc(-c2ccccc2)nc2ccccc12)c1ccccc1 (centres unmarked)	237 to 238 °C
CCC(NC(=O)c1cc(-c2ccccc2)nc2ccccc12)c1ccc(Cl)c(Cl)c1 (centres unmarked)	193 to 194 °C
COC(=O)C(NC(=O)c1cc(-c2cc3ccccc3o2)nc2ccccc12)c1ccccc1 (centres unmarked)	240 to 241 °C

What does the record list as melting point for CCC(NC(=O)c1c(Br)c(-c2ccccc2)nc2ccccc12)c1ccccc1 (centres unmarked) ?
119 to 122 °C

What does the record list as melting point for COC(=O)C(NC(=O)c1cc(-c2ccccc2F)nc2ccccc12)c1ccccc1 (centres unmarked) ?
146 to 147 °C

What does the record list as melting point for CCC(NC(=O)c1c(C)c(-c2ccccc2)nc2ccc(Br)cc12)c1ccccc1 (centres unmarked) ?
179 to 180 °C

What does the record list as melting point for O=C(NC1(c2ccccc2)CCCC1)c1cc(-c2ccccc2)nc2ccccc12 ?
164 to 165 °C

What does the record list as melting point for CCC(NC(=O)c1c(Cl)c(-c2ccccc2)nc2ccccc12)c1ccccc1 (centres unmarked) ?
137 to 139 °C

What does the record list as melting point for COC(=O)C(NC(=O)c1cc(-c2ccccc2)nc2ccc(OC)cc12)c1ccccc1 (centres unmarked) ?
209 to 211 °C

What does the record list as melting point for COC(=O)C(NC(=O)c1c(O)c(-c2ccccc2)nc2ccccc12)c1ccccc1 (centres unmarked) ?
125 to 127 °C

What does the record list as melting point for O=C(NC(c1ccccc1)c1ccccc1)c1cc(-c2ccccc2)nc2ccccc12 ?
182 to 184 °C

What does the record list as melting point for COC(=O)C(NC(=O)c1cc(-c2ccc(OC)cc2)nc2ccccc12)c1ccccc1 (centres unmarked) ?
182 to 183 °C

What does the record list as melting point for COC(=O)C(NC(=O)c1cc(-c2ccccc2)nc2ccc(C)cc12)c1ccccc1 (centres unmarked) ?
179 to 181 °C

What does the record list as melting point for COC(=O)C(NC(=O)c1cc(-c2ccc[nH]2)nc2ccccc12)c1ccccc1 (centres unmarked) ?
181 to 182 °C

What does the record list as melting point for COC(=O)C(NC(=O)c1cc(-c2ccc3c(c2)OCO3)nc2ccccc12)c1ccccc1 (centres unmarked) ?
186 to 187 °C

What does the record list as melting point for COC(=O)C(c1ccccc1)N(C)C(=O)c1cc(-c2ccccc2)nc2ccccc12 (centres unmarked) ?
128 to 129 °C

----------
Quick list: melting point per entry.

The following compounds have reported results that may help.
compound	recorded_result
COC(=O)[C@H](NC(=O)c1cc(-c2ccccc2)nc2ccccc12)c1ccc(O)cc1.Cl	140 °C (dec.)
CCCc1c(-c2ccccc2)nc2ccccc2c1C(=O)NC(CC)c1ccccc1 (stereo not shown) [Example 40]	149 to 151 °C
COC(=O)C(NC(=O)c1cc(-c2ccc(O)cc2)nc2ccccc12)c1ccccc1 (stereo not shown) [Example 62]	226 to 227 °C
O=C(NC(CO)c1ccccc1)c1cc(-c2ccccc2)nc2ccccc12 (stereo not shown) [Example 28]	117 to 119 °C
O=C(NC(C(=O)N1CCCC1)c1ccccc1)c1cc(-c2ccccc2)nc2ccccc12 (stereo not shown) [Example 91]	199 to 200 °C

What does the record list as melting point for COC(=O)C(NC(=O)c1cc(-c2ccccc2C)nc2ccccc12)c1ccccc1 (stereo not shown) [Example 59] ?
180 to 182 °C

What does the record list as melting point for COC(=O)C(NC(=O)c1cc(-c2ccccc2)nc2ccc(Cl)cc12)c1ccccc1 (stereo not shown) [Example 35] ?
197 to 199 °C

What does the record list as melting point for COC(=O)C(NC(=O)c1cc(-c2ccc(Cl)cc2Cl)nc2ccccc12)c1ccccc1 (stereo not shown) [Example 82] ?
142 to 143 °C

What does the record list as melting point for CCc1c(-c2ccccc2)nc2ccccc2c1C(=O)NC(CC)c1ccccc1 (stereo not shown) [Example 48] ?
118 to 120 °C

What does the record list as melting point for CN(C)CC(NC(=O)c1cc(-c2ccccc2)nc2ccccc12)c1ccccc1 (stereo not shown) [Example 88] ?
133 to 135 °C

What does the record list as melting point for COC(=O)C(NC(=O)c1cc(-c2ccccc2)nc2c(OC(C)=O)cccc12)c1ccccc1 (stereo not shown) [Example 80] ?
193 to 194 °C

What does the record list as melting point for C[C@H](O)[C@H](NC(=O)c1cc(-c2ccccc2)nc2ccccc12)c1ccccc1 [Example 17] ?
204 to 205 °C

----------
Counter-ions that a name gives are not always drawn.
measurement_kind: melting point

The following compounds have reported results that may help.
compound	melting point
COC(=O)C(NC(=O)c1cc(-c2cccc(Cl)c2)nc2ccccc12)c1ccccc1 (stereo not shown) [Example 77]	161 to 163 °C
O=C(NC(c1ccccc1)C(F)(F)F)c1cc(-c2ccccc2)nc2ccccc12 (stereo not shown) [Example 46]	180 to 181 °C
COCC(NC(=O)c1cc(-c2ccccc2)nc2ccccc12)c1ccccc1 (stereo not shown) [Example 34]	144 to 145 °C
O=C(NC(Cc1ccccc1)c1ccccc1)c1cc(-c2ccccc2)nc2ccccc12 (stereo not shown) [Example 45]	194 to 196 °C
O=C(NC(C(=O)O)c1ccccc1)c1cc(-c2ccccc2)nc2ccccc12 (stereo not shown) (as salt: HCl) [Example 92]	203 to 205 °C
COC(=O)C(NC(=O)c1cc(-c2ccccc2)nc2c(O)cccc12)c1ccccc1 (stereo not shown) [Example 81]	178 to 180 °C
CCCCc1c(-c2ccccc2)nc2ccccc2c1C(=O)NC(CC)c1ccccc1 (stereo not shown) [Example 19]	147 to 150 °C
CCCCC(NC(=O)c1cc(-c2ccccc2)nc2ccccc12)c1ccccc1 (stereo not shown) [Example 56]	155 to 156 °C
COC(=O)C(NC(=O)c1c(C)c(-c2ccccc2)nc2ccccc12)c1ccccc1 (stereo not shown) [Example 30]	180 to 181 °C
CC(C)C(NC(=O)c1cc(-c2ccccc2)nc2ccccc12)c1ccccc1 (stereo not shown) [Example 72]	165 to 166 °C

What does the record list as melting point for COC(=O)C(NC(=O)c1cc(-c2nccs2)nc2ccccc12)c1ccccc1 (stereo not shown) [Example 54] ?
209 to 211 °C

What does the record list as melting point for COC(=O)C(NC(=O)c1cc(-c2ccsc2)nc2ccccc12)c1ccccc1 (stereo not shown) [Example 51] ?
169 to 171 °C

What does the record list as melting point for COC(=O)C(NC(=O)c1cc(-c2ccc(C)cc2)nc2ccccc12)c1ccccc1 (stereo not shown) [Example 57] ?
172 to 174 °C
